Would you mind telling me the reported inhibition of each entry?
# System: Legionella pneumophila 130b
# Assay Notes: Inhibition of recombinant Legionella pneumophila 130b His6-tagged NTPDase (41 to 393 residues) expressed in Escherichia coli BL21(DE3) cells using ADP as substrate at 30 uM incubated for 10 mins by capillary electrophoresis method relative to control
Enter your answer as a number in %; do not include the unit.

Entry `COc1ccccc1Oc1ccc(Nc2cc(S(=O)(=O)O)c(N)c3c2C(=O)c2ccccc2C3=O)cc1` has what inhibition? 28

Can you share its inhibition? I mean this compound: `Nc1c(S(=O)(=O)O)cc(Nc2cccc3ccccc23)c2c1C(=O)c1ccccc1C2=O` 62

Using the record for `Nc1c(S(=O)(=O)O)cc(Nc2ccc3cc(C(=O)O)ccc3c2)c2c1C(=O)c1ccccc1C2=O` , report its inhibition. 32

May I ask what inhibition has been recorded for `Nc1c(S(=O)(=O)O)cc(Nc2cc3ccccc3c3ccccc23)c2c1C(=O)c1ccccc1C2=O` ? 90

# get_value(readout='inhibition', item= `Nc1c(S(=O)(=O)O)cc(Nc2cccc3c(S(=O)(=O)O)cccc23)c2c1C(=O)c1ccccc1C2=O` ) 26

So what's the measured inhibition for this one? `Nc1c(S(=O)(=O)O)cc(Nc2cccc([N+](=O)[O-])c2)c2c1C(=O)c1ccccc1C2=O` 44

Endpoint output: inhibition of `Nc1c(S(=O)(=O)O)cc(Nc2ccc(Cl)cc2)c2c1C(=O)c1ccccc1C2=O` . Value? 66

Query (compound): `Nc1c(S(=O)(=O)O)cc(Nc2cccc(Br)c2)c2c1C(=O)c1ccccc1C2=O` ; field requested: inhibition 44

For the compound `Nc1c(S(=O)(=O)O)cc(Nc2ccccc2)c2c1C(=O)c1ccccc1C2=O` , what inhibition is on record? 31

----------
# System Tested: Ectonucleoside triphosphate diphosphohydrolase 1 (Homo sapiens, UniProt P49961)
# Sequence (P49961 whole entry): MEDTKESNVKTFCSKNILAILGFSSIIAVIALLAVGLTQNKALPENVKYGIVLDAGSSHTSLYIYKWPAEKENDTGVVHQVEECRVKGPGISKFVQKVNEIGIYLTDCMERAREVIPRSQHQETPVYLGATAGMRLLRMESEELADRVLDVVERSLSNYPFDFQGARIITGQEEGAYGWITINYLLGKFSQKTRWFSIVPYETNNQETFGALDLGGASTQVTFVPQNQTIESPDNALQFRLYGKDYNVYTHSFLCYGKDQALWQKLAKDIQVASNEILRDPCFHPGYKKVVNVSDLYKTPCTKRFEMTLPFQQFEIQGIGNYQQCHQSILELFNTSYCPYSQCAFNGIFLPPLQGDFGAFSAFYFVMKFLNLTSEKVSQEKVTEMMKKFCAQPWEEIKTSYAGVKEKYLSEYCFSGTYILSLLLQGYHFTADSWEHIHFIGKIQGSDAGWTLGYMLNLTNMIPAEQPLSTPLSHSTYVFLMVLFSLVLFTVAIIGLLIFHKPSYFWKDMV
# Assay Notes: Inhibition of recombinant human NTPDase1 expressed in CHO cells using ADP as substrate incubated for 10 mins by capillary electrophoresis method
Measured Quantity: IC50 (µM)
Quick note: give the figure in µM, leave out the unit.

Given the entry `Nc1c(S(=O)(=O)O)cc(Nc2cc3ccccc3c3ccccc23)c2c1C(=O)c1ccccc1C2=O` , what IC50 was observed with Ectonucleoside triphosphate diphosphohydrolase 1 (Homo sapiens, UniProt P49961)? 20
